assay-summary: Pharmacokinetics: AZD2811 whole blood concentrations and urine excretion
Assay type: in vivo, human
setup-conditions: human, whole blood, intravenous, 200 mg, whole blood; Cohort 8: 200 mg, Day 1, 21-day cycles, optional G-CSF, N = 3; read-out: Median tmax (range)
measured-endpoint: Tmax (h)
Please respond with the number in h and leave the unit unwritten.

## Task Give its Tmax value. Item: `CCN(CCO)CCCOc1ccc2c(Nc3cc(CC(=O)Nc4cccc(F)c4)n[nH]3)ncnc2c1`
## Result 4

----------
assay-summary: Pharmacokinetics: AZD2811 whole blood concentrations and urine excretion
Type: in vivo, human
setup-conditions: human, whole blood, intravenous, 200 mg, whole blood, compartmental PK analysis; Cohort 7: 200 mg, Day 1, 28-day cycles, optional G-CSF, N = 3; read-out: Geometric mean AUC(0–504h) (CV%)
measured-endpoint: AUC(0-t)
Kindly format the answer as number then unit.

## Task Give its AUC(0-t) value. Item: `CCN(CCO)CCCOc1ccc2c(Nc3cc(CC(=O)Nc4cccc(F)c4)n[nH]3)ncnc2c1`
## Result 3020 µg·h/mL

----------
assay-summary: Pharmacokinetics: AZD2811 whole blood concentrations and urine excretion
Assay type: in vivo, human
setup-conditions: human, whole blood, intravenous, 38 mg, whole blood, compartmental PK analysis; Cohort 3: 38 mg, Days 1 and 4, 28-day cycles, no G-CSF, N = 3; read-out: Geometric mean AUC(0–504h) (CV%)
measured-endpoint: AUC(0-t) (µg·h/mL)
Please respond with the number in µg·h/mL and leave the unit unwritten.

## Task Give its AUC(0-t) value. Item: `CCN(CCO)CCCOc1ccc2c(Nc3cc(CC(=O)Nc4cccc(F)c4)n[nH]3)ncnc2c1`
## Result 917

----------
assay-summary: Pharmacokinetics: AZD2811 whole blood concentrations and urine excretion
Format: in vivo, human
setup-conditions: human, whole blood, intravenous, 600 mg, whole blood, compartmental PK analysis; Cohort 11: 600 mg, Day 1, 21-day cycles, mandatory G-CSF, N = 3; read-out: Geometric mean AUC(0–504h) (CV%)
measured-endpoint: AUC(0-t)
Kindly format the answer as number then unit.

## Task Give its AUC(0-t) value. Item: `CCN(CCO)CCCOc1ccc2c(Nc3cc(CC(=O)Nc4cccc(F)c4)n[nH]3)ncnc2c1`
## Result 11600 µg·h/mL

----------
assay-summary: Pharmacokinetics: AZD2811 whole blood concentrations and urine excretion
Type: in vivo, human
setup-conditions: human, whole blood, intravenous, 38 mg, whole blood; Cohort 3: 38 mg, Days 1 and 4, 28-day cycles, no G-CSF, N = 3; read-out: Geometric mean Cmax (CV%)
measured-endpoint: Cmax (ng/mL)
Please respond with the number in ng/mL and leave the unit unwritten.

## Task Give its Cmax value. Item: `CCN(CCO)CCCOc1ccc2c(Nc3cc(CC(=O)Nc4cccc(F)c4)n[nH]3)ncnc2c1`
## Result 8900

----------
assay-summary: Pharmacokinetics: AZD2811 whole blood concentrations and urine excretion
Type: in vivo, human
setup-conditions: human, whole blood, intravenous, 51 mg, whole blood; Cohort 4: 51 mg, Days 1 and 4, 28-day cycles, no G-CSF, N = 3; read-out: Geometric mean Cmax (CV%)
measured-endpoint: Cmax

## Task Give its Cmax value. Item: CCN(CCO)CCCOc1ccc2c(Nc3cc(CC(=O)Nc4cccc(F)c4)n[nH]3)ncnc2c1 [AZD2811]
## Result 14500 ng/mL

----------
assay-summary: Pharmacokinetics: AZD2811 whole blood concentrations and urine excretion
Format: in vivo, human
setup-conditions: human, whole blood, intravenous, 15 mg, whole blood; Cohort 1: 15 mg, Days 1 and 4, 28-day cycles, no G-CSF, N = 3; read-out: Median tmax (range)
measured-endpoint: Tmax (h)
Please respond with the number in h and leave the unit unwritten.

## Task Give its Tmax value. Item: `CCN(CCO)CCCOc1ccc2c(Nc3cc(CC(=O)Nc4cccc(F)c4)n[nH]3)ncnc2c1`
## Result 77
